Data provenance: patent US20220267258A1

Test system: P. falciparum A6
Assay: SYBR Green growth inhibition assay, P. falciparum A6
Assay type: cell-based, Plasmodium falciparum
Details: Plasmodium falciparum, 72 h, read-out: IC50 A6
pIC50: −log10 of the molar value.
measured_quantity: pIC50

INSERT INTO measurements (compound, observed_measurement) VALUES
  ('N=C(N/N=C/c1ccccc1F)N/N=C/c1ccccc1F [Compound 2]', 5.72),
  ('N=C(N/N=C/c1ccccc1)N/N=C/c1ccccc1F [Compound 38]', 6.08),
  ('CCN(CC)CCCC(C)Nc1ccnc2cc(Cl)ccc12 (stereo not shown) [Chloroquine, reference compound]', 7.80),
  ('N=C(N/N=C/c1ccc(O)cc1)N/N=C/c1ccc(O)cc1 [Compound 25]', 6.56);
